From: patent US20030199671A1

Batch Binding (% Capture of Total Load) hIgG1 listing for selected substances.
# system: human IgG1 (Homo sapiens)
# Construct: all human subtypes derived from myeloma patients; purchased Calbiochem 400120; host or cells: myeloma patients
# Sequence (P01857 1-330 isoform P01857-1): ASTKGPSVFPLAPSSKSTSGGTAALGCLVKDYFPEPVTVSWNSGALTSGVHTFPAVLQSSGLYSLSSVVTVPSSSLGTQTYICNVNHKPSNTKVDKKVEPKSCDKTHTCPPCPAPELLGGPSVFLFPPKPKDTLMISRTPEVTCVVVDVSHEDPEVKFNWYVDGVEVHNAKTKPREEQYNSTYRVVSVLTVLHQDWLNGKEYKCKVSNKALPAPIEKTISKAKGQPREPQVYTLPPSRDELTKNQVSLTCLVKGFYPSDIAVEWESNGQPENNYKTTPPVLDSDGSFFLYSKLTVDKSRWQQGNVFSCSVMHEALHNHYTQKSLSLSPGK
# Type: binding
# testConditions: Table 20; average ligand density 1.9 μmole/ml
Non-standard residues stand in square brackets, D forms with d. Nle = CCCC[C@H](N)C(=O)O
measurementType: Batch Binding (% Capture of Total Load) hIgG1

{"substance": "Ac-VCVYTTWGELIWCDNHEPGPEGGGK-NH2 (not fully specified (bridges); printed as Ac-VCVYTTWGELIWCDNHEPGPEGGGK-NH2; cysteine pairing not given here) [DX1067]", "measuredResult": "33%"}
{"substance": "Ac-ACVYTTWGELIWCDNHEPGPEGGGK-NH2 (not fully specified (bridges); printed as Ac-ACVYTTWGELIWCDNHEPGPEGGGK-NH2; cysteine pairing not given here) [DX1064]", "measuredResult": "70%"}
{"substance": "Ac-EHMCVYTTWGELIWCDNHEPGPEGGGK-NH2 (not fully specified (bridges); printed as Ac-EHMCVYTTWGELIWCDNHEPGPEGGGK-NH2; cysteine pairing not given here) [DX1063]", "measuredResult": "73%"}
{"substance": "Ac-[Nle]CVYTTWGELIWCDNHEPGPEGGGK-NH2 (not fully specified (bridges); printed as Ac-[Nle]CVYTTWGELIWCDNHEPGPEGGGK-NH2; cysteine pairing not given here) [DX1068]", "measuredResult": "33%"}
